All figures here come from patent US11453660B2.

# measured.target: human androgen receptor (Homo sapiens, UniProt P10275, T878A)
# Construct: endogenously expressed human androgen receptor using the LnCap prostate cancer cell line; endogenous in cells
# Sequence (P10275 1-920 T878A): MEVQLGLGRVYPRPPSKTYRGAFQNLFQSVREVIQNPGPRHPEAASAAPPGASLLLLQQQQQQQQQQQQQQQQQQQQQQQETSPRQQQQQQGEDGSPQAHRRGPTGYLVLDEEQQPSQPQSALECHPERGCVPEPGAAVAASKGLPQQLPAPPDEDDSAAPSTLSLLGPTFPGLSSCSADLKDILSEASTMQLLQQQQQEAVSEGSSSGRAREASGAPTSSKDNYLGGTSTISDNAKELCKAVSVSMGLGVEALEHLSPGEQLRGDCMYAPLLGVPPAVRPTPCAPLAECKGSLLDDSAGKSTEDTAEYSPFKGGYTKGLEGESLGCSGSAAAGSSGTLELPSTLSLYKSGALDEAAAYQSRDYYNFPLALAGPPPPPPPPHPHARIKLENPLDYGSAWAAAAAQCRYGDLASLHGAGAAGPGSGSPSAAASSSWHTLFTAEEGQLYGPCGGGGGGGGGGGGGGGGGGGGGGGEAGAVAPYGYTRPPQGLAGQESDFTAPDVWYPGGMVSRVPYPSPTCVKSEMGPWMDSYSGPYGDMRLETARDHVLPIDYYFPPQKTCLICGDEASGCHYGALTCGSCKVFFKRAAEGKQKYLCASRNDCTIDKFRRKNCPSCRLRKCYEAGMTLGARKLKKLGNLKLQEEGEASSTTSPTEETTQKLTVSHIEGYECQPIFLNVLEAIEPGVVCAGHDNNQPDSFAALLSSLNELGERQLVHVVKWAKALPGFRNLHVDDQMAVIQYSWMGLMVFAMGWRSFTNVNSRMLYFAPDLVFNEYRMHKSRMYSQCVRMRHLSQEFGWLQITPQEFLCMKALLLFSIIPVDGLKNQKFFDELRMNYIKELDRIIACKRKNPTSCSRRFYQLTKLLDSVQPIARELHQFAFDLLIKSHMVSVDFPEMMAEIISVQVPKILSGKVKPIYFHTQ
# experiment.description: Human Androgen Receptor Binding (radioligand binding, LnCap prostate cancer cell line)
# condition.set: LnCap cells, displacement of [^3H]-methyltrienolone, 2 hours at 37° C.; read-out: AR LNCaP
metric: IC50

CC(=O)C1=C(C)NC(C)=C(C(=O)OCc2cccnc2)C1c1csc2ccccc12 (stereo not shown) : ≥ 1000 nM

What value of IC50 on human androgen receptor (Homo sapiens, UniProt P10275, T878A) does COC(=O)C1=C(C)NC(N)=C(C(=O)OCC2CC2)C1c1csc2c(C#N)ccc(F)c12 (stereo not shown) have?
100 to 1000 nM
